# Test system: 242566-281-R-J2-PDC complex spheroid viability
# assay info: Anticancer human tumor 242566-281-R-J2-PDC patient-derived pancreatic carcinoma cell line growth inhibition [CLK]
# condition description: second compound 0.0316 µM; first compound 10 µM; hits give low values
Rule: viability, T/C below 70% gives T. Equal to or above 70% gives F.

compound="CC1(C)CCC(CN2CCN(c3ccc(C(=O)NS(=O)(=O)c4ccc(NCC5CCOCC5)c([N+](=O)[O-])c4)c(Oc4cnc5[nH]ccc5c4)c3)CC2)=C(c2ccc(Cl)cc2)C1 + CN1CCN(c2cc(C(=O)Nc3cc4cc(-c5cnn(C)c5)ccc4cn3)ccn2)CC1" assigned_class=T
compound="C=CC(=O)N1CCN(c2nc(=O)n(-c3c(C)ccnc3C(C)C)c3nc(-c4c(O)cccc4F)c(F)cc23)C(C)C1 (stereo unspecified) + CN1CCN(c2cc(C(=O)Nc3cc4cc(-c5cnn(C)c5)ccc4cn3)ccn2)CC1" assigned_class=F
compound="O=C(c1cc(Cc2n[nH]c(=O)c3ccccc23)ccc1F)N1CCN(C(=O)C2CC2)CC1 + CN1CCN(c2cc(C(=O)Nc3cc4cc(-c5cnn(C)c5)ccc4cn3)ccn2)CC1" assigned_class=F
compound="COC1C=CCC(C)C(C)S(=O)(=O)NC(=O)c2ccc3c(c2)N(CC2CCC21)CC1(CCCc2cc(Cl)ccc21)CO3 (stereo unspecified) + CN1CCN(c2cc(C(=O)Nc3cc4cc(-c5cnn(C)c5)ccc4cn3)ccn2)CC1" assigned_class=T

q: viability, T/C strictly < 70% for this compound? CC1(C)CCC(CN2CCN(c3ccc(C(=O)NS(=O)(=O)c4ccc(NCC5CCOCC5)c([N+](=O)[O-])c4)c(Oc4cnc5[nH]ccc5c4)c3)CC2)=C(c2ccc(Cl)cc2)C1 + CNC(=O)c1ccc(Nc2nc(OC3CCCC3)c3c(-c4ccc5nc(C)oc5c4)c[nH]c3n2)c(OC)c1
a: F

q: Criterion: viability, T/C strictly below 70%. Is it met by C=C(F)C(=O)N1CCN(c2nc(OCC3CCCN3C)nc3c2CCN(c2cccc4cccc(Cl)c24)C3)CC1CC#N (stereo unspecified) + CN1CCN(c2cc(C(=O)Nc3cc4cc(-c5cnn(C)c5)ccc4cn3)ccn2)CC1 ?
a: T

q: Find out if reported viability, T/C for Nc1ccccc1NC(=O)c1ccc(CNC(=O)OCc2cccnc2)cc1 + CN1CCN(c2cc(C(=O)Nc3cc4cc(-c5cnn(C)c5)ccc4cn3)ccn2)CC1 is less than 70%
a: T

q: Please let me know if O=C(c1cc(Cc2n[nH]c(=O)c3ccccc23)ccc1F)N1CCN(C(=O)C2CC2)CC1 + CNC(=O)c1ccc(Nc2nc(OC3CCCC3)c3c(-c4ccc5nc(C)oc5c4)c[nH]c3n2)c(OC)c1 shows viability, T/C below 70%.
a: F

---

Here the recorded viability, T/C is given for each entry.
# Test system: 242566-281-R-J2-PDC complex spheroid viability
# assay info: Anticancer human tumor 242566-281-R-J2-PDC cell line growth inhibition [CLK];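 also: spheroids exposed to compounds for 7 days before readout; 100% = DMSO vehicle control wells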
# condition description: second compound 1 µM; first compound 0.00316 µM; hits give low values
Form entry: value (%) — number only.

molecule="Cn1ncnc1[C@H]1c2n[nH]c(=O)c3cc(F)cc(c23)N[C@@H]1c1ccc(F)cc1 + CNC(=O)c1ccc(Nc2nc(OC3CCCC3)c3c(-c4ccc5nc(C)oc5c4)c[nH]c3n2)c(OC)c1" observation_type="viability, T/C" obs_value=62.5
molecule="CCc1c2c(nc3ccc(O)cc13)-c1cc3c(c(=O)n1C2)COC(=O)[C@]3(O)CC + CN1CCN(c2cc(C(=O)Nc3cc4cc(-c5cnn(C)c5)ccc4cn3)ccn2)CC1" observation_type="viability, T/C" obs_value=3.62
molecule="Cn1ncnc1[C@H]1c2n[nH]c(=O)c3cc(F)cc(c23)N[C@@H]1c1ccc(F)cc1 + CN1CCN(c2cc(C(=O)Nc3cc4cc(-c5cnn(C)c5)ccc4cn3)ccn2)CC1" observation_type="viability, T/C" obs_value=4.59
molecule="COc1c(OCCCN2CCOCC2)ccc2c3n(c(=NC(=O)c4cnc(N)nc4)nc12)CCN3 + CNC(=O)c1ccc(Nc2nc(OC3CCCC3)c3c(-c4ccc5nc(C)oc5c4)c[nH]c3n2)c(OC)c1" observation_type="viability, T/C" obs_value=61.5
molecule="CCc1c2c(nc3ccc(O)cc13)-c1cc3c(c(=O)n1C2)COC(=O)[C@]3(O)CC + CNC(=O)c1ccc(Nc2nc(OC3CCCC3)c3c(-c4ccc5nc(C)oc5c4)c[nH]c3n2)c(OC)c1" observation_type="viability, T/C" obs_value=29.4

q: Can you share its viability, T/C? I mean this molecule: CCN1CCN(Cc2ccc(Nc3ncc(F)c(-c4cc(F)c5nc(C)n(C(C)C)c5c4)n3)nc2)CC1 + CNC(=O)c1ccc(Nc2nc(OC3CCCC3)c3c(-c4ccc5nc(C)oc5c4)c[nH]c3n2)c(OC)c1
a: 74.5

q: viability, T/C for CCN1CCN(Cc2ccc(Nc3ncc(F)c(-c4cc(F)c5nc(C)n(C(C)C)c5c4)n3)nc2)CC1 + CN1CCN(c2cc(C(=O)Nc3cc4cc(-c5cnn(C)c5)ccc4cn3)ccn2)CC1 ?
a: 5.41

q: Requested read-out: viability, T/C. Entry: COc1c(OCCCN2CCOCC2)ccc2c3n(c(=NC(=O)c4cnc(N)nc4)nc12)CCN3 + CN1CCN(c2cc(C(=O)Nc3cc4cc(-c5cnn(C)c5)ccc4cn3)ccn2)CC1
a: 3.43
